# Assayed system: T1, HLA-DR2b molecules purified from L cells co-transfected with HLA-DRA and HLA-DRB1*1501 (human)
# T1 construct: also called purified DR2b molecules
# Experiment description: competitive ELISA (DELFIA) on purified HLA-DR2b, displacement of biotinylated CLIP 97-120
Measured metric: IC50

Q: Query (binder): Ac-DIYWYSSWP-NH2 (acetylated nonapeptide amide) [HuPb32] ; field requested: IC50
Result: < 0.001 µM

Q: // lookup IC50 for Ac-PYEAQELHE-NH2 (acetylated nonapeptide amide) [HuPb14]
Result: > 100 µM

Q: What IC50 value was documented for this binder, Ac-WGLPEHLER-NH2 (acetylated nonapeptide amide) [HuPb11] ?
Result: > 100 µM

# evaluate next
Q: Data request, read-out IC50, for Ac-GPPERLEFR-NH2 (acetylated nonapeptide amide) [HuPb19]
Result: > 100 µM
